Form field: GI50 (one value per entry).
# Tested on: NCI-H23
# TEST_METHOD_NOTES: NCI tumour cell line growth inhibition, 48 h
Calls of active or inactive are those of the source. Cut-off read from the data, not from the text of the source: active = GI50 up to about 1.1 µM and inactive = higher.

Examples with answers:
>>> result("CC1CC(C)C(C#N)N(C)c2ccccc21 (stereo not given)")
"> 100 µM (inactive)"
>>> result("O=C(O)c1c(-c2ccccc2)c(=O)[nH]c2ccccc12")
"> 100 µM (inactive)"
>>> result("CC(C)(C)c1ccccc1N1C(=O)c2ccc3c4c(ccc(c24)C1=O)N(c1ccccc1C(C)(C)C)C3=O")
"> 100 µM (inactive)"
>>> result("Cc1nnc2sc(-c3ccc(-c4ccccc4Cl)o3)nn12")
"24.2 µM (inactive)"
>>> result("O=C(O)c1ccccc1CN1CCCC(C(=O)O)C1 (stereo not given)")
"> 100 µM (inactive)"
>>> result("COC(=O)C(NC(=O)c1ccccc1)C(c1c(O)cc(O)cc1O)P(=O)(OC)OC (stereo not given)")
"69.5 µM (inactive)"
>>> result("COC(=O)CCC(=O)NC1=C(Nc2ccc(OC)cc2)C(=O)c2ccccc2C1=O")
"6.34 µM (inactive)"
>>> result("CCC(C)N1CN(c2ccccc2)C2(CCN(CCCC(=O)c3ccc(F)cc3)CC2)C1=O (stereo not given)")
"3.57 µM (inactive)"

May I ask what GI50 has been recorded for Cn1c(=O)c2c(nc(NCCCCl)n2CC(=O)O)n(C)c1=O ? > 100 µM (inactive)

Also, CC(C)CC(=O)NC(C(=O)NC(C(=O)NC(CC(C)C)C(O)CC(=O)NC(C)C(=O)NC(CC(C)C)C(O)CC(=O)O)C(C)C)C(C)C (stereo not given) please. > 100 µM (inactive)
